- Test details: qHTS Assay for Lipid Storage Modulators (AID 1519)
- Condition label: Drosophila S3 cells, BODIPY lipid droplet/cell ratio, laser cytometry; measured here: lipid channel max response; cells loaded with oleic acid
Records with an inconclusive call do not appear.
Values of max response strictly less than 20% map to label 1, and values of at least 20% map to label 0.

| Compound | Assigned label |
| --- | --- |
| COc1ccc2nc(S(=O)Cc3ncc(C)c(OC)c3C)[nH]c2c1 (configuration not stated) | label 1 |
| N#Cc1ccc(C(c2ccc(C#N)cc2)n2cncn2)cc1 | label 1 |
| c1ccc([C@H]2CN3CCSC3=N2)cc1 | label 0 |
| CNC[C@H](O)c1cccc(O)c1 | label 0 |
| CCOC(=O)C1=C[C@]2(CC)CCCN3CCc4c(n1c1ccccc41)[C@@H]32 | label 1 |
| NC(=O)c1cnccn1 | label 0 |
| CC(=O)Oc1ccccc1C(=O)O | label 0 |

----------
max response for assorted compounds
- Test details: qHTS Assay for Lipid Storage Modulators (AID 1519)
- Condition label: Drosophila S3 cells, BODIPY lipid droplet/cell ratio, laser cytometry; measured here: lipid channel max response; cells loaded with oleic acid
Records with an inconclusive call do not appear.

| Compound | max response, % |
| --- | --- |
| C1COC(NC(C2CC2)C2CC2)=N1 | -12.8 |
| CC(C[N+](C)(C)C)OC(N)=O (configuration not stated) | -6.21 |
| O=C(O)COCCN1CCN(C(c2ccccc2)c2ccc(Cl)cc2)CC1 (configuration not stated) | 13.6 |
| O=C1CCc2cc(OCCCCc3nnnn3C3CCCCC3)ccc2N1 | -27.2 |
| Cc1ccccc1C(OCCN(C)C)c1ccccc1 (configuration not stated) | -33.7 |
| CCCc1nc2c(C)cc(-c3nc4ccccc4n3C)cc2n1Cc1ccc(-c2ccccc2C(=O)O)cc1 | -15.7 |
| Cc1[nH]c(=O)c(C#N)cc1-c1ccc2nccn2c1 | 21.7 |

----------
- Test details: Confirmation and Secondary Assay for Modulators of Hemoglobin Beta Chain Splicing at IVS2 654 locus (AID 910);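 further: HeLa cells stably carrying EGFP split by mutant beta-globin IVS2-654 intron; per-well total GFP intensity by laser scanning cytometry after 2-day treatment; % of control where 0% means no effect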
- Condition label: HeLa EGFP-654 splicing reporter, GFP fluorescence, 48 h; series mostly up to 46.1 µM
Calls of active or inactive are those of the source. Calls come from the whole dose curve; as a rule, active = well fitted activation curve with a large enough effect; inconclusive = small, poorly fitted or top-dose-only effect; inactive = flat fitted curve, though single readings scatter.

| Compound | outcome |
| --- | --- |
| NCCc1ccc(O)c(O)c1 | inactive |
| N=c1nc(N2CCCCC2)cc(N)n1O | inactive |
| NC(=O)c1cnccn1 | inactive |
| NC(N)=NC(=O)c1nc(Cl)c(N)nc1N | inactive |
| CCCC(CCC)C(=O)O | inactive |
| Cc1cc2c(C(C)C)c(O)c(O)c(C=O)c2c(O)c1-c1c(C)cc2c(C(C)C)c(O)c(O)c(C=O)c2c1O | inactive |
| NNCCc1ccccc1 | inactive |
| NS(=O)(=O)c1cc2c(cc1Cl)NC=NS2(=O)=O | inactive |
| O=C1CCc2cc(OCCCCc3nnnn3C3CCCCC3)ccc2N1 | inactive |
| CCn1cc(C(=O)O)c(=O)c2cc(F)c(N3CCNC(C)C3)c(F)c21 (configuration not stated) | inactive |
| CCCc1nn(C)c2c(=O)[nH]c(-c3cc(S(=O)(=O)N4CCN(C)CC4)ccc3OCC)nc12 | inactive |
| O=c1n(CCCN2CCN(c3cccc(Cl)c3)CC2)nc2ccccn12 | inactive |
| Nc1ccc(S(=O)(=O)Nc2ccnn2-c2ccccc2)cc1 | inactive |
| Cc1oncc1C(=O)Nc1ccc(C(F)(F)F)cc1 | inactive |
| CC(C)(C)NCC(O)c1ccc(O)c(CO)c1 (configuration not stated) | inactive |
| O=NN(CCCl)C(=O)NCCCl | inactive |
| Cc1ccccc1C(OCCN(C)C)c1ccccc1 (configuration not stated) | inactive |

These data points were gathered from PubChem BioAssay (NCATS).
